B1: KRT15 (parent)
chain: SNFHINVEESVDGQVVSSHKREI

- Variants of: B1
- Experimental Details: protein stability index of a GFP-peptide fusion (GPS, HEK-293T) (PSI 1-6); higher = more stable;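 further: lentivirally expressed fusions sorted by FACS into six bins by GFP to DsRed ratio, PSI derived from sequencing read proportions per bin multiplied by bin number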
- Condition Label: c terminus: native
Using protein stability index as the sorting value, the categories are range A = under 2, range B = from 2 up to 3, range C = 3 and over

Completed entries (count: 2):
Mutant Id: S10T
Class Label: range A
//
Mutant Id: H4C
Class Label: range B

Dear colleague, I would appreciate it if you could identify the bin for `S18Y` and reply at your convenience.
range C

Dear colleague, I would appreciate it if you could identify the bin for `S17T` and reply at your convenience.
range B
